tested_on: Muscarinic acetylcholine receptor M5 (Homo sapiens, UniProt P08912)
Sequence (P08912 whole entry): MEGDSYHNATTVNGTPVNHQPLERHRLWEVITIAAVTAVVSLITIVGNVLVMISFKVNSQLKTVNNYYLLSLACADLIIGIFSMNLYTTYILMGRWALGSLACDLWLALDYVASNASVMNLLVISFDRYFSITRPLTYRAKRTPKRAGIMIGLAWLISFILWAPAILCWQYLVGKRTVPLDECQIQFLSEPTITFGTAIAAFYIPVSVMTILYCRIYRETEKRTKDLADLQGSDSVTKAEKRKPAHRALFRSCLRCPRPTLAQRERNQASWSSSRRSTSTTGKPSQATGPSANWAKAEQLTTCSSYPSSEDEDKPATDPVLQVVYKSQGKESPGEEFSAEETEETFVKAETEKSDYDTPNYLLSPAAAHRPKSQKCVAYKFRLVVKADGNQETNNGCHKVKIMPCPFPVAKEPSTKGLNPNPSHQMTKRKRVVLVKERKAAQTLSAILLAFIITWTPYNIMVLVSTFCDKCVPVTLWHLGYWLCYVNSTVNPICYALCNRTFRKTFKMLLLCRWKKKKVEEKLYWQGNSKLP
Format: cell membranes, CHO-K1, Membrane
condition_info: cho-k1; read-out: IC50
metric: pIC50
Kindly note that pIC50 refers to -log10 of the concentration in mol/L and answer with the value alone.

Q) Using the record for IVERMECTIN , report its pIC50.
A) 5.44

---

tested_on: cGMP-specific 3',5'-cyclic phosphodiesterase (Homo sapiens)
assay_details: DRUGMATRIX: Phosphodiesterase PDE5 enzyme inhibition (substrate: [3H]cGMP + cGMP)
Type: tissue-based, Platelet
condition_info: Not Active = under 50% inhibition at 10 µM; read-out: IC50
metric: IC50
Please don't drop the unit; write it after the number.

Q) Using the record for O=c1cc(-c2ccccc2)oc2c1ccc1ccccc12 , report its IC50.
A) 2.3 µM
